Can you tell me EC50 for the items I'm about to list?
Target: T1, human CXCR2 (human, UniProt P25025 1-360)
T1 construct: also called CXC chemokine receptor 2; hCXCR2
T1 sequence: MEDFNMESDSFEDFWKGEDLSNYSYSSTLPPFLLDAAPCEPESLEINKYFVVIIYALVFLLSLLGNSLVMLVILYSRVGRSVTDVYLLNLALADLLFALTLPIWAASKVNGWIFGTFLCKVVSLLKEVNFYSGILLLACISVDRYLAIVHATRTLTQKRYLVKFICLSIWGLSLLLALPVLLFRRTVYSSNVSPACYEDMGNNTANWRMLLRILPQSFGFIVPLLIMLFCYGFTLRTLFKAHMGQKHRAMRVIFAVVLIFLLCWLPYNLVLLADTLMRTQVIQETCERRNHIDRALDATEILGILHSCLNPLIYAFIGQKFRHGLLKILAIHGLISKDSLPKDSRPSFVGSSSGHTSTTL
Experiment: flow cytometry, CXCR2-transfected Expi293F cells
One number for each entry, in nM.

As a guide, the following entries are already answered.
{"binder": "BKO-4A8 combinatorial variant 7b (antibody, human IgG4 S228P, lambda, V domains shown, IgG4 S228P, lambda) VH: EVQLLESGGGLVQPGGSLRLSCAASGFTFSSSTQSWVRQPPGKGLEWVSAISGRGRSTYYADSVKGRFTISRDNSRNTLYLQMNSLRAEDTAVYYCAKQKGYWGQGILVTVSS VL: QSALTQPPSASGSPGQSVTISCIGTSSDVGGYNYVSWYQQHPDKAPKLMIYEVSKRPSGVPDRFSGSKSGNTASLTVSGLQAEDEADYYCSSYAGSNNFGVFGGGTKLTVLG", "unitInfo": "nM", "assayValue": 0.8}
{"binder": "BKO-4A8 combinatorial variant 3b (antibody, human IgG4 S228P, lambda, V domains shown, IgG4 S228P, lambda) VH: EVQLLESGGGLVQPGGSLRLSCAASGFTFSSSTQSWVRQPPGKGLEWVSAISGRGRSTYYADSVKGRFTISRDNSKNTLYLQMNSLRAEDTAVYYCAIQMGYWGQGILVTVSS VL: QSALTQPPSASGSPGQSVTISCIGTSSDVGGYNYVSWYQQHPDKAPKLMIYEVSKRPSGVPDRFSGSKSGNTASLTVSGLQAEDEADYYCSSYAGSNNFGVFGGGTKLTVLG", "unitInfo": "nM", "assayValue": 0.1}

What the record says about BKO-4A8 combinatorial variant 4c (antibody, human IgG4 S228P, lambda, V domains shown, IgG4 S228P, lambda) VH: EVQLLESGGGLVQPGGSLRLSCAASGFTFSSSTQSWVRQPPGKGLEWVSAISGRGRSTYYADSVKGRFTISRDNSRNTLYLQMNSLRAEDTAVYYCAIQKGYWGQGILVTVSS VL: QSALTQPPSASGSPGQSVTISCIGTSSDVGGYNYVSWYQQHPGKAPKLMIYEVSKRPSGVPDRFSGSKSGNTASLTVSGLQAEDEADYYCSSYAGSNNFGVFGGGTKLTVLG : EC50 is 0.4
